Each recorded value in this set is attributed to the NIST ThermoML archive (doi:10.1021/je500093z).

measurement parameters: 333.15 K, Ring tensiometer
Just a reminder that ties go to criterion not met: only surface tension liquid-gas strictly below 40 mN/m counts as criterion met.

Here are 5 compounds together with their reported answers.
Given the entry CCn1cc[n+](C)c1.COS(=O)(=O)[O-] [1-ethyl-3-methylimidazolium methylsulfate] , would its reported surface tension liquid-gas be below 40 mN/m?
criterion met

Given the entry COS(=O)(=O)[O-].Cn1cc[n+](C)c1 [1,3-dimethylimidazolium methylsulfate] , would its reported surface tension liquid-gas be below 40 mN/m?
criterion not met

Given the entry CC(C)C[P+](C)(CC(C)C)CC(C)C.Cc1ccc(S(=O)(=O)[O-])cc1 [triisobutylmethylphosphonium p-toluenesulfonate] , would its reported surface tension liquid-gas be below 40 mN/m?
criterion met

Given the entry CCCCCCCC[n+]1ccn(C)c1.[Cl-] [1-methyl-3-octylimidazolium chloride] , would its reported surface tension liquid-gas be below 40 mN/m?
criterion met

Given the entry CCCC[n+]1ccc(C)cc1.F[B-](F)(F)F [1-butyl-4-methylpyridinium tetrafluoroborate] , would its reported surface tension liquid-gas be below 40 mN/m?
criterion not met

Continuing:
Given the entry CCCCCCn1cc[n+](C)c1.F[P-](F)(F)(F)(F)F [1-hexyl-3-methylimidazolium hexafluorophosphate] , would its reported surface tension liquid-gas be below 40 mN/m?
criterion met

Given the entry CCCCCCCC[n+]1ccn(C)c1.F[P-](F)(F)(F)(F)F [1-octyl-3-methylimidazolium hexafluorophosphate] , would its reported surface tension liquid-gas be below 40 mN/m?
criterion met
